The following compounds are listed with their measured pEC50 values.
- MEASURED_ON: human CB1R (Homo sapiens)
- Construct: host or cells: CHO cells
- Sequence (P21554 whole entry): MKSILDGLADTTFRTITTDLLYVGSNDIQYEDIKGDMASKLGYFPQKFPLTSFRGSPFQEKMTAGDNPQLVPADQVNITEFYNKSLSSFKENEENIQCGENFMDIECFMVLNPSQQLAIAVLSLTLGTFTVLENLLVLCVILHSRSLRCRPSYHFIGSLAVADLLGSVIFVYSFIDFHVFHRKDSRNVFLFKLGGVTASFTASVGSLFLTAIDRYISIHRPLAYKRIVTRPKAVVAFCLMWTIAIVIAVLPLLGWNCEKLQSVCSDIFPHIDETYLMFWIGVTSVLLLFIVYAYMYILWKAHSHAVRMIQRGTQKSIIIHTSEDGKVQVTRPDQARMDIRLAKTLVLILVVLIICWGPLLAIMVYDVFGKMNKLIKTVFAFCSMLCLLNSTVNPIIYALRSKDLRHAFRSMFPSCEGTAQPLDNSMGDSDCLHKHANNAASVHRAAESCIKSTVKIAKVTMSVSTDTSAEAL
- EXPERIMENT_NOTES: CB1R mediated modulation of cAMP synthesis
- Format: cell-based
pEC50: −log10 of the molar value.

| COMPOUND | MEASURED_ON | pEC50 |
| --- | --- | --- |
| CC(C)(C)C(=O)OCC(C)(C)c1cc(NC(=O)C(C)(C)S(=O)(=O)C2CCOCC2)on1 | human CB1R (Homo sapiens) | < 4.30 |
| CC(O)C(C)(C)c1cc(NC(=O)C(C)(C)S(=O)(=O)C2CCOCC2)on1 (stereo not drawn) | human CB1R (Homo sapiens) | < 4.30 |
| CC1(c2cc(NC(=O)C(C)(C)S(=O)(=O)C3CCOCC3)on2)CCCO1 (stereo not drawn) | human CB1R (Homo sapiens) | < 4.30 |
| COCCOCC(C)(C)c1cc(NC(=O)C(C)(C)S(=O)(=O)CC2CCOCC2)no1 | human CB1R (Homo sapiens) | < 4.30 |
| C[C@H](O)C(C)(C)c1cc(NC(=O)C(C)(C)S(=O)(=O)C2CCOCC2)on1 | human CB1R (Homo sapiens) | < 4.30 |
| CC(=O)OCC(C)(C)c1cc(NC(=O)C(C)(C)S(=O)(=O)C2CCOCC2)on1 | human CB1R (Homo sapiens) | < 4.30 |
| CC(C)(COC(=O)c1ccccc1)c1cc(NC(=O)C(C)(C)S(=O)(=O)C2CCOCC2)on1 | human CB1R (Homo sapiens) | < 4.30 |
| CC(C)CCS(=O)(=O)C(C)(C)C(=O)Nc1cc(C2CCOCC2)no1 | human CB1R (Homo sapiens) | < 4.70 |
| CC(C)(COCCO)c1cc(NC(=O)C(C)(C)S(=O)(=O)CC2CCOCC2)on1 | human CB1R (Homo sapiens) | < 4.30 |

###

The following compounds are listed with their measured pEC50 values.
- MEASURED_ON: human CB2R (Homo sapiens)
- Construct: host or cells: CHO cells
- Sequence (P34972 whole entry): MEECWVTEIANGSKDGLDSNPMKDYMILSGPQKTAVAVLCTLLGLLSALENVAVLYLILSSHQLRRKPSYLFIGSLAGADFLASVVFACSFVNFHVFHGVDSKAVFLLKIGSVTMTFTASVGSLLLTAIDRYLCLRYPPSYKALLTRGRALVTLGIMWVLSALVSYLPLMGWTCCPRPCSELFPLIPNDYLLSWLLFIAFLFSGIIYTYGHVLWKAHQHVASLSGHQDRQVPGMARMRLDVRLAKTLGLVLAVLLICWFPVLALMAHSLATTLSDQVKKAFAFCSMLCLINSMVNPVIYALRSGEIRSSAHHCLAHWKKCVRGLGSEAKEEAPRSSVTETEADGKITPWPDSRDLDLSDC
- EXPERIMENT_NOTES: CB2R mediated modulation of cAMP synthesis
- Assay type: cell-based
pEC50: −log10 of the molar value.

| COMPOUND | MEASURED_ON | pEC50 |
| --- | --- | --- |
| CC(C)(C)C(=O)OCC(C)(C)c1cc(NC(=O)C(C)(C)S(=O)(=O)C2CCOCC2)on1 | human CB2R (Homo sapiens) | 7.30 |
| CC(C)(C(=O)Nc1cc(C2(COC3CCCCO3)CCCC2)no1)S(=O)(=O)c1ccc(F)cc1 (stereo not drawn) | human CB2R (Homo sapiens) | 8.28 |
| CC(C)(OCCO)c1cc(NC(=O)C(C)(C)S(=O)(=O)C2CCOCC2)on1 | human CB2R (Homo sapiens) | 7.55 |
| COCCOCC(C)(C)c1cc(NC(=O)C(C)(C)S(=O)(=O)C2CCOCC2)on1 | human CB2R (Homo sapiens) | 8.68 |
| CCC(O)C(C)(C)c1cc(NC(=O)C(C)(C)S(=O)(=O)C2CCOCC2)on1 (stereo not drawn) | human CB2R (Homo sapiens) | 7.54 |
| CCOCCOCC(C)(C)c1cc(NC(=O)C(C)(C)S(=O)(=O)C2CCOCC2)on1 | human CB2R (Homo sapiens) | 8.82 |
| COCCOCC(C)(C)c1cc(NC(=O)C(C)(C)S(=O)(=O)C2CCOCC2)no1 | human CB2R (Homo sapiens) | 7.82 |
| COCCOCC(C)(C)c1cc(NC(=O)C(C)(C)S(=O)(=O)C[C@H]2CCOC2)on1 | human CB2R (Homo sapiens) | 7.01 |
| CC(C)(COCCO)c1cc(NC(=O)C(C)(C)S(=O)(=O)CC2CCOCC2)on1 | human CB2R (Homo sapiens) | 7.89 |
